System: SK-MEL-2 melanoma
Assay: NCI tumour cell line growth inhibition, 48 h
quantity.kind: TGI

>  <smiles.data>
C=C(C)[C@H]1C=C[C@@H](OC(C)=O)[C@@]2(COC(C)=O)[C@H](OC(=O)CCC)[C@H]3[C@@H](OC(C)=O)[C@@H](C)C[C@]3(O)C(=O)[C@@](C)(OC(C)=O)[C@H]12

>  <TGI>
> 100 µM

$$$$
>  <smiles.data>
CC(=O)Nc1ccc2cc3c(nc2n1)c1cccnc1n3S(=O)(=O)c1ccccc1

>  <TGI>
> 100 µM

$$$$

Now examine the next entry.
// TGI lookup, key: COc1ccc(OC)c2c1-c1nnnn1CCC2(C)C
> 100 µM
